- protocol: Pharmacokinetics of AUY922 and its glucuronide metabolite BJP762 in blood (LC-MS/MS, non-compartmental)
- Type: in vivo, human (Japanese patients with advanced solid tumors)
- test-context: human, blood, iv, 54 mg/m2; read-out: T max [median (range)]
parameter-measured: Tmax (min)
Provide the reading as a plain figure in min.

In: Give reported Tmax value for CCNC(=O)c1noc(-c2cc(C(C)C)c(O)cc2O)c1-c1ccc(CN2CCOCC2)cc1 [AUY922]
Out: 45.6

---

- protocol: Pharmacokinetics of AUY922 and its glucuronide metabolite BJP762 in blood (LC-MS/MS, non-compartmental)
- Format: in vivo, human (Japanese patients with advanced solid tumors)
- test-context: human, blood, iv, 40 mg/m2; read-out: T max [median (range)]
parameter-measured: Tmax (h)
Provide the reading as a plain figure in h.

In: Give reported Tmax value for CCNC(=O)c1noc(-c2cc(C(C)C)c(O)cc2O)c1-c1ccc(CN2CCOCC2)cc1 [AUY922]
Out: 1.05

---

- protocol: Pharmacokinetics of AUY922 and its glucuronide metabolite BJP762 in blood (LC-MS/MS, non-compartmental)
- Type: in vivo, human (Japanese patients with advanced solid tumors)
- test-context: human, blood, iv, 54 mg/m2
- Method: Intra-patient dose escalation was not permitted. […] The occurrence of DLTs was evaluated during Cycle 1.
parameter-measured: half-life (h)
Provide the reading as a plain figure in h.

In: Give reported half-life value for CCNC(=O)c1noc(-c2cc(C(C)C)c(O)cc2O)c1-c1ccc(CN2CCOCC2)cc1 [AUY922]
Out: 120

---

- protocol: Pharmacokinetics of AUY922 and its glucuronide metabolite BJP762 in blood (LC-MS/MS, non-compartmental)
- Type: in vivo, human (Japanese patients with advanced solid tumors)
- test-context: human, blood, iv, 40 mg/m2
parameter-measured: half-life (h)
Provide the reading as a plain figure in h.

In: Give reported half-life value for CCNC(=O)c1noc(-c2cc(C(C)C)c(O)cc2O)c1-c1ccc(CN2CCOCC2)cc1 [AUY922]
Out: 123

---

- protocol: Pharmacokinetics of AUY922 and its glucuronide metabolite BJP762 in blood (LC-MS/MS, non-compartmental)
- Assay type: in vivo, human (Japanese patients with advanced solid tumors)
- test-context: human, whole blood, iv, 70 mg/m2
parameter-measured: AUC(0-inf)
Give me the value, and tack the unit on after it.

In: Give reported AUC(0-inf) value for CCNC(=O)c1noc(-c2cc(C(C)C)c(O)cc2O)c1-c1ccc(CN2CCOCC2)cc1
Out: 12600 ng·h/mL

---

- protocol: Pharmacokinetics of AUY922 and its glucuronide metabolite BJP762 in blood (LC-MS/MS, non-compartmental)
- Type: in vivo, human (Japanese patients with advanced solid tumors)
- test-context: human, whole blood, iv, 40 mg/m2
parameter-measured: Cmax (ng/mL)
Provide the reading as a plain figure in ng/mL.

In: Give reported Cmax value for CCNC(=O)c1noc(-c2cc(C(C)C)c(O)cc2O)c1-c1ccc(CN2CCOCC2)cc1
Out: 710

---

- protocol: Pharmacokinetics of AUY922 and its glucuronide metabolite BJP762 in blood (LC-MS/MS, non-compartmental)
- Type: in vivo, human (Japanese patients with advanced solid tumors)
- test-context: human, whole blood, iv, 40 mg/m2
- Protocol: Intra-patient dose escalation was not permitted. […] The occurrence of DLTs was evaluated during Cycle 1.
parameter-measured: clearance
Give me the value, and tack the unit on after it.

In: Give reported clearance value for CCNC(=O)c1noc(-c2cc(C(C)C)c(O)cc2O)c1-c1ccc(CN2CCOCC2)cc1
Out: 95.7 mL/min

---

- protocol: Pharmacokinetics of AUY922 and its glucuronide metabolite BJP762 in blood (LC-MS/MS, non-compartmental)
- Format: in vivo, human (Japanese patients with advanced solid tumors)
- test-context: human, blood, iv, 70 mg/m2; read-out: T max [median (range)]
parameter-measured: Tmax (h)
Provide the reading as a plain figure in h.

In: Give reported Tmax value for CCNC(=O)c1noc(-c2cc(C(C)C)c(O)cc2O)c1-c1ccc(CN2CCOCC2)cc1
Out: 1.02

---

- protocol: Pharmacokinetics of AUY922 and its glucuronide metabolite BJP762 in blood (LC-MS/MS, non-compartmental)
- Assay type: in vivo, human (Japanese patients with advanced solid tumors)
- test-context: human, whole blood, iv, 40 mg/m2; read-out: Vz
parameter-measured: Vd (L)
Provide the reading as a plain figure in L.

In: Give reported Vd value for CCNC(=O)c1noc(-c2cc(C(C)C)c(O)cc2O)c1-c1ccc(CN2CCOCC2)cc1
Out: 980

---

- protocol: Pharmacokinetics of AUY922 and its glucuronide metabolite BJP762 in blood (LC-MS/MS, non-compartmental)
- Type: in vivo, human (Japanese patients with advanced solid tumors)
- test-context: human, whole blood, iv, 70 mg/m2; read-out: Vz
parameter-measured: Vd (L)
Provide the reading as a plain figure in L.

In: Give reported Vd value for CCNC(=O)c1noc(-c2cc(C(C)C)c(O)cc2O)c1-c1ccc(CN2CCOCC2)cc1 [AUY922]
Out: 1570

---

- protocol: Pharmacokinetics of AUY922 and its glucuronide metabolite BJP762 in blood (LC-MS/MS, non-compartmental)
- Format: in vivo, human (Japanese patients with advanced solid tumors)
- test-context: human, whole blood, iv, 28 mg/m2
parameter-measured: AUC(0-inf) (ng·h/mL)
Provide the reading as a plain figure in ng·h/mL.

In: Give reported AUC(0-inf) value for CCNC(=O)c1noc(-c2cc(C(C)C)c(O)cc2O)c1-c1ccc(CN2CCOCC2)cc1
Out: 9550

---

- protocol: Pharmacokinetics of AUY922 and its glucuronide metabolite BJP762 in blood (LC-MS/MS, non-compartmental)
- Format: in vivo, human (Japanese patients with advanced solid tumors)
- test-context: human, whole blood, iv, 70 mg/m2
parameter-measured: clearance
Give me the value, and tack the unit on after it.

In: Give reported clearance value for CCNC(=O)c1noc(-c2cc(C(C)C)c(O)cc2O)c1-c1ccc(CN2CCOCC2)cc1 [AUY922]
Out: 143 mL/min

---

- protocol: Pharmacokinetics of AUY922 and its glucuronide metabolite BJP762 in blood (LC-MS/MS, non-compartmental)
- Assay type: in vivo, human (Japanese patients with advanced solid tumors)
- test-context: human, whole blood, iv, 28 mg/m2
parameter-measured: AUC(0-t)
Give me the value, and tack the unit on after it.

In: Give reported AUC(0-t) value for CCNC(=O)c1noc(-c2cc(C(C)C)c(O)cc2O)c1-c1ccc(CN2CCOCC2)cc1
Out: 6810 ng·h/mL

---

- protocol: Pharmacokinetics of AUY922 and its glucuronide metabolite BJP762 in blood (LC-MS/MS, non-compartmental)
- Format: in vivo, human (Japanese patients with advanced solid tumors)
- test-context: human, whole blood, iv, 54 mg/m2
parameter-measured: clearance (mL/min)
Provide the reading as a plain figure in mL/min.

In: Give reported clearance value for CCNC(=O)c1noc(-c2cc(C(C)C)c(O)cc2O)c1-c1ccc(CN2CCOCC2)cc1
Out: 121

---

- protocol: Pharmacokinetics of AUY922 and its glucuronide metabolite BJP762 in blood (LC-MS/MS, non-compartmental)
- Assay type: in vivo, human (Japanese patients with advanced solid tumors)
- test-context: human, whole blood, iv, 40 mg/m2
parameter-measured: AUC(0-inf) (ng·h/mL)
Provide the reading as a plain figure in ng·h/mL.

In: Give reported AUC(0-inf) value for CCNC(=O)c1noc(-c2cc(C(C)C)c(O)cc2O)c1-c1ccc(CN2CCOCC2)cc1 [AUY922]
Out: 11400

---

- protocol: Pharmacokinetics of AUY922 and its glucuronide metabolite BJP762 in blood (LC-MS/MS, non-compartmental)
- Type: in vivo, human (Japanese patients with advanced solid tumors)
- test-context: human, whole blood, iv, 54 mg/m2
parameter-measured: Cmax (ng/mL)
Provide the reading as a plain figure in ng/mL.

In: Give reported Cmax value for CCNC(=O)c1noc(-c2cc(C(C)C)c(O)cc2O)c1-c1ccc(CN2CCOCC2)cc1 [AUY922]
Out: 1050

---

- protocol: Pharmacokinetics of AUY922 and its glucuronide metabolite BJP762 in blood (LC-MS/MS, non-compartmental)
- Type: in vivo, human (Japanese patients with advanced solid tumors)
- test-context: human, whole blood, iv, 40 mg/m2
- Protocol: Intra-patient dose escalation was not permitted. […] The occurrence of DLTs was evaluated during Cycle 1.
parameter-measured: AUC(0-t)

In: Give reported AUC(0-t) value for CCNC(=O)c1noc(-c2cc(C(C)C)c(O)cc2O)c1-c1ccc(CN2CCOCC2)cc1
Out: 6960 ng·h/mL

---

- protocol: Pharmacokinetics of AUY922 and its glucuronide metabolite BJP762 in blood (LC-MS/MS, non-compartmental)
- Assay type: in vivo, human (Japanese patients with advanced solid tumors)
- test-context: human, whole blood, iv, 28 mg/m2; read-out: Vz
parameter-measured: Vd (L)
Provide the reading as a plain figure in L.

In: Give reported Vd value for CCNC(=O)c1noc(-c2cc(C(C)C)c(O)cc2O)c1-c1ccc(CN2CCOCC2)cc1
Out: 646
